- protocol: BSK_SAg_PBMCCytotoxicity: PBMC Cytotoxicity Assessment in the BioMAP Diversity Plus: SAg Assay (AID 2283093);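 note: PBMC viability measured as Alamar Blue reduction fluorescence at 546/580 nm; fitted both ways against DMSO so a hit may be loss or gain of signal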
- run conditions: primary human HUVEC with PBMC
Active and inactive are the calls of the source. Rule for the calls: active = hit-call score of the fitted dose curve at least 0.9, where 1 is the maximum; inactive = score below 0.9.
Classes used: active, inactive

{"molecule": "O=C1OC(=O)C2C3C=CC(C3)C12 (centres undefined)", "answer label": "inactive"}
{"molecule": "Cc1ccc(C)c(O)c1", "answer label": "inactive"}
{"molecule": "CCc1cc(SCc2sc(-c3ccc(C(F)(F)F)cc3)nc2CN2CCN(c3ccc(OC)cc3)CC2)ccc1OCC(=O)O", "answer label": "active"}
{"molecule": "C=CC(=C)CCC=C(C)C", "answer label": "inactive"}
{"molecule": "Fc1ccccc1[C@@H](F)COC1CCC(Nc2ncnc3[nH]ncc23)CC1 (some centres undefined)", "answer label": "active"}
{"molecule": "COC(=O)c1ccccc1O", "answer label": "inactive"}
{"molecule": "CC(=O)OCCC(C)C", "answer label": "inactive"}
{"molecule": "Oc1ccc2c(c1)-c1ccccc1C2", "answer label": "inactive"}
{"molecule": "COc1ccc(/C=C/S(=O)(=O)NC(=O)c2ccc(C)cc2Cl)cc1", "answer label": "inactive"}
{"molecule": "O=C(O)c1cc(N=Nc2ccc(S(=O)(=O)Nc3ccccn3)cc2)ccc1O", "answer label": "inactive"}
{"molecule": "O=C(O)CCN(C1(C(=O)NO)CCCC1)S(=O)(=O)c1ccc(Oc2ccc(F)cc2)cc1", "answer label": "inactive"}
{"molecule": "O=C(O)c1cccc(Oc2ccccc2)c1", "answer label": "inactive"}
{"molecule": "NC(=O)NO", "answer label": "inactive"}
{"molecule": "COC(=O)c1c(Cl)c(Cl)c(C(=O)OC)c(Cl)c1Cl", "answer label": "inactive"}
{"molecule": "CC(=O)OC[C@H]1O[C@@](COC(C)=O)(O[C@H]2O[C@H](COC(C)=O)[C@@H](OC(C)=O)[C@H](OC(C)=O)[C@H]2OC(C)=O)[C@@H](OC(C)=O)[C@@H]1OC(C)=O", "answer label": "inactive"}
{"molecule": "O=C(O)CC(O)C(=O)O (centres undefined)", "answer label": "inactive"}
{"molecule": "CC(C)=CCCC(C)CCO (centres undefined)", "answer label": "inactive"}
{"molecule": "CN(C)c1ccc(N=NS(=O)(=O)O)cc1", "answer label": "inactive"}
{"molecule": "CCOC(=O)CC(CC(=O)OCC)(OC(C)=O)C(=O)OCC", "answer label": "inactive"}
{"molecule": "CC(C)CCCCCCCOC(=O)CCCCC(=O)OCCCCCCCC(C)C", "answer label": "inactive"}
{"molecule": "CN(C)c1ccc(Cc2ccc(N(C)C)cc2)cc1", "answer label": "inactive"}
{"molecule": "CC(C)=CCCC(C)=CC=O", "answer label": "inactive"}
{"molecule": "COCCOCCOCCOC", "answer label": "inactive"}
{"molecule": "Clc1nc(Cl)c(Cl)c(Cl)c1Cl", "answer label": "inactive"}
{"molecule": "CC(C)(O)c1coc(S(=O)(=O)NC(=O)Nc2c3c(cc4c2CCC4)CCC3)c1", "answer label": "inactive"}
{"molecule": "Cc1ccc(O)cc1", "answer label": "inactive"}
{"molecule": "CCCCCCCCCCCCc1ccccc1", "answer label": "inactive"}
{"molecule": "Cc1[nH]cnc1C[C@H]1CCc2c(C)c3ccccc3n2C1=O", "answer label": "active"}
{"molecule": "CC(C)CC(C)(O)C#CC(C)(O)CC(C)C (centres undefined)", "answer label": "inactive"}
{"molecule": "O=c1n(CC2CO2)c(=O)n(CC2CO2)c(=O)n1CC1CO1 (centres undefined)", "answer label": "inactive"}
{"molecule": "O=C1CCC(N2C(=O)c3ccccc3C2=O)C(=O)N1 (centres undefined)", "answer label": "inactive"}
{"molecule": "COC(=O)CC(=O)OC", "answer label": "inactive"}
{"molecule": "O=C(CCCCCCCCc1cccnc1)N1CCC(C=C(c2ccccc2)c2ccccc2)CC1", "answer label": "active"}
{"molecule": "C=CCCCCCCCCC(=O)O", "answer label": "inactive"}
{"molecule": "CCCN(C1CCN(C(=O)C2CCNCC2)CC1)[C@@H]1CCc2ccc(OC)cc2C1", "answer label": "inactive"}
{"molecule": "CCOCCOCCOCCO", "answer label": "inactive"}
{"molecule": "CCCCCCCCCCCCCCCO", "answer label": "active"}
{"molecule": "Nc1nc2ncc(CNc3ccc(C(=O)N[C@@H](CCC(=O)O)C(=O)O)cc3)nc2c(=O)[nH]1", "answer label": "inactive"}
{"molecule": "C[C@](N)(Cc1ccc(O)c(O)c1)C(=O)O", "answer label": "active"}
